Reference source: patent US20260242478A1

We begin with a simple list: items and their reported Anti-CD28 Fab (SEQ ID NOs: 696, 697) signal.
biological target: Anti-CD28 Fab (SEQ ID NOs: 696, 697); assay: phage binding ELISA; biotinylated anti-CD28 Fab on neutravidin plate, clonal phage detected with anti-M13 HRP
Sequence (VH, as listed by the source, chain 1 of 2): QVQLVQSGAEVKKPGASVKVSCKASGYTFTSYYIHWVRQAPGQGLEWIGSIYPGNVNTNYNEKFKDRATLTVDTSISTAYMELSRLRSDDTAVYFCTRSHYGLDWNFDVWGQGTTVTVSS
Sequence (VL, as listed by the source, chain 2 of 2): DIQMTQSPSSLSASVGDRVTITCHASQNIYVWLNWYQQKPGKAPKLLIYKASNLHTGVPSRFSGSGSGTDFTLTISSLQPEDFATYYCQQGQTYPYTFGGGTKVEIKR
MEASUREMENT TYPE: Anti-CD28 Fab (SEQ ID NOs: 696, 697) signal

BINDER	RECORDED MEASUREMENT
TCSAGFSLQLSICL [Phage-1469 peptide (Peptide-92 library, SEQ ID NO: 1765)]	1.77
TCAAGAHYPWPYCL [Phage-1467 peptide (Peptide-92 library, SEQ ID NO: 1763)]	1.77
LCKPGVPYQWPTCL [Phage-1465 peptide (Peptide-92 library, SEQ ID NO: 1761)]	1.78
LCTAGLAYNWPTCL [Phage-1471 peptide (Peptide-92 library, SEQ ID NO: 1767)]	1.77
TCAAGASYQWPLCF [Phage-1462 peptide (Peptide-92 library, SEQ ID NO: 1758)]	1.79
SCAAGASYPWPQCL [Phage-1470 peptide (Peptide-92 library, SEQ ID NO: 1766)]	1.77
